# System: SK-MEL-28 melanoma
# assay procedure: NCI tumour cell line growth inhibition, 48 h
Where a SMILES comes first, the peptide text is derived from it. The star is where a group is joined. Boc = CC(C)(C)OC(=O)*
Documented TGI across a set of compounds

compound	system name	TGI
CCCC(CC)c1c(O)c(O)c(C(CC)CCC)c(C(CC)CCC)c1C(CC)CCC (stereo not drawn)	SK-MEL-28 melanoma	> 10 µM
O=C1OC2(C(F)(F)F)Oc3ccccc3CN2C12CCCCC2 (stereo not drawn)	SK-MEL-28 melanoma	> 100 µM
[N-]=[N+]=NC1CC(n2cc(COCC(F)(F)F)c(=O)[nH]c2=O)OC1CO (stereo not drawn)	SK-MEL-28 melanoma	> 100 µM
COC(=O)C(Cc1c[nH]c2ccccc12)NC(=O)C(Cc1c[nH]c2ccccc12)NC(=O)C(Cc1c[nH]c2ccccc12)NC(=O)C(Cc1c[nH]c2ccccc12)NC(=O)OC(C)(C)C (stereo not drawn) (Boc-WWWW-OMe; configuration not given here)	SK-MEL-28 melanoma	> 100 µM
C[C@H](CC[C@@H](O)C(C)(C)O)[C@H]1CC[C@@]2(C)[C@@H]3CC=C4[C@@H](CC[C@H](O)C4(C)C)[C@]3(C)C(=O)C[C@]12C	SK-MEL-28 melanoma	> 50 µM
O=C(Nc1nnc(-c2ccccc2)o1)C(SC(=S)N1CCOCC1)c1ccccc1 (stereo not drawn)	SK-MEL-28 melanoma	> 100 µM
O=C(Cn1c(=O)c(-c2ccccc2)nc2ccccc21)c1cccnc1	SK-MEL-28 melanoma	> 100 µM
Oc1ccc2occ3c2c1CCC3	SK-MEL-28 melanoma	> 100 µM
